measured_property: log10 of IC50 (log10 of the value in µM)
On a log10 scale: recorded IC50, unit µM.

Given "CC(C)=CCN1C(=O)/C(=N/NC(=O)c2ccc(Cl)cc2)c2ccccc21" , report its log10 of IC50 on Urease (Helicobacter pylori, UniProt Q0PXQ5).
Sequence (Q0PXQ5 whole entry): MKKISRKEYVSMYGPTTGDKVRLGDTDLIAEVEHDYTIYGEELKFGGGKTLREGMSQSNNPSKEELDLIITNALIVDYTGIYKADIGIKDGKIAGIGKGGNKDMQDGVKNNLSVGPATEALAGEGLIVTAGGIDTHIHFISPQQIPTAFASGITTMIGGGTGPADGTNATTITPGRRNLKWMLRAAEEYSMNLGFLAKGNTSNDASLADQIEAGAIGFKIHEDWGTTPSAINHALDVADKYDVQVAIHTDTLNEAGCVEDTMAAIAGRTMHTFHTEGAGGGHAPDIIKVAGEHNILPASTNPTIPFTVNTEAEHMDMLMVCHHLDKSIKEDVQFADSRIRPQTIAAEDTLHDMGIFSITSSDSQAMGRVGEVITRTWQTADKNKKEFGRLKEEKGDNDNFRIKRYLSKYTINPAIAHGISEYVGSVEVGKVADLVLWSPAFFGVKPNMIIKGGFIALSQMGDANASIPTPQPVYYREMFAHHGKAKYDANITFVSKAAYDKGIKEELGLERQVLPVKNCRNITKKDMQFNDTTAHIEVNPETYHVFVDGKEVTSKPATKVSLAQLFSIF
2.16

Fetch value of log10 of IC50 on Urease (Helicobacter pylori, UniProt Q0PXQ5) for "COc1cc(OC)cc(C(=O)N/N=C2/C(=O)N(CC=C(C)C)c3ccccc32)c1" .
0.13

Specify the recorded log10 of IC50 for "CC(C)=CCN1C(=O)/C(=N/NC(=O)c2ccc(Br)cc2)c2ccccc21" , system: Urease (Helicobacter pylori, UniProt Q0PXQ5).
1.92

Answer briefly: log10 of IC50 recorded on Urease (Helicobacter pylori, UniProt Q0PXQ5) for "CC(C)=CCN1C(=O)/C(=N/NC(=O)c2ccc(C(C)(C)C)cc2)c2ccccc21"
1.29

Determine reported log10 of IC50 for "CC(C)=CCN1C(=O)/C(=N/NC(=O)c2ccc(C(F)(F)F)cc2)c2ccccc21" ; test system: Urease (Helicobacter pylori, UniProt Q0PXQ5).
1.64

Provide log10 of IC50, recorded with Urease (Helicobacter pylori, UniProt Q0PXQ5), of "CC(C)=CCN1C(=O)/C(=N/NC(=O)c2cccc(Cl)c2)c2ccccc21"
1.58

Look up and report log10 of IC50, with Urease (Helicobacter pylori, UniProt Q0PXQ5) as system, for "COc1ccc(C(=O)N/N=C2/C(=O)N(CC=C(C)C)c3ccccc32)cc1"
0.84

Given "CC(C)=CCN1C(=O)/C(=N/NC(=O)c2cccc(C(F)(F)F)c2)c2ccccc21" , report its log10 of IC50 on Urease (Helicobacter pylori, UniProt Q0PXQ5).
1.82

Report its log10 of IC50 with Urease (Helicobacter pylori, UniProt Q0PXQ5) as the test system: "CC(C)=CCN1C(=O)/C(=N/NC(=O)c2cccc(Br)c2)c2ccccc21"
1.44

Please respond with reported log10 of IC50 (system Urease (Helicobacter pylori, UniProt Q0PXQ5)) for CC(=O)NO [ACETOHYDROXAMIC ACID] .
1.24

Print Urease (Helicobacter pylori, UniProt Q0PXQ5) log10 of IC50 for "CC(C)=CCN1C(=O)/C(=N/NC(=O)c2ccc(C)cc2)c2ccccc21" .
1.48

Using Urease (Helicobacter pylori, UniProt Q0PXQ5) as the test system, report measured log10 of IC50 of "CC(C)=CCN1C(=O)/C(=N/NC(=O)c2ccc(F)cc2)c2ccccc21" .
2.19

Provide measured log10 of IC50 on Urease (Helicobacter pylori, UniProt Q0PXQ5) for "CC(C)=CCN1C(=O)/C(=N/NC(=O)c2ccc(C(C)C)cc2)c2ccccc21" please.
1.17

Return reported log10 of IC50 for target or system Urease (Helicobacter pylori, UniProt Q0PXQ5), item "COc1ccc(C(=O)N/N=C2/C(=O)N(CC=C(C)C)c3ccccc32)cc1F" .
0.58

Fill: log10 of IC50 (Urease (Helicobacter pylori, UniProt Q0PXQ5)) for this compound "COc1cccc(C(=O)N/N=C2/C(=O)N(CC=C(C)C)c3ccccc32)c1"
0.91

Values compiled from ChEMBL document CHEMBL4265894.
